Origin of values: PubChem BioAssay AID248

List of T/C values.
System: L1210 leukemia ip in BDF1 mice, survival T/C
Assay: NCI In Vivo Anticancer Drug Screen. Data for tumor model L1210 Leukemia (intraperitoneal) in B6D2F1 (BDF1) mice
Assay setup: endpoint: mean survival time; dose: 200.0 mg/kg/injection; schedule: Q01DX001 (ip); vehicle: Klucel (hydroxypropylcellulose) (HPC); higher = longer survival
Toxic doses and inconclusive results are not listed.

Incoming: Please report the measured T/C for N#CCNC(=O)c1ccc(I)cc1
Outgoing: 95 % of control

Incoming: Please report the measured T/C for CC1C(=O)OC2C1CCC1(C)C=CC(=O)C3(C)OC213 (configuration not stated)
Outgoing: 94 % of control

Incoming: Please report the measured T/C for CC(=O)C(C(=O)c1ccccc1)C(c1ccccc1)c1ccccc1 (configuration not stated)
Outgoing: 90 % of control

Incoming: Please report the measured T/C for COc1cc(C)oc(=O)c1
Outgoing: 104 % of control

Incoming: Please report the measured T/C for CCCC(C(O)CC)[N+](=O)[O-] (configuration not stated)
Outgoing: 97 % of control

Incoming: Please report the measured T/C for CC1(C)C2=CCCCC2CC/C1=N\O (configuration not stated)
Outgoing: 105 % of control

Incoming: Please report the measured T/C for CCCCCCCCCCCCCSCCCCCCCCCCCCSCCCCCCCCCCCC
Outgoing: 88 % of control

----------
Tested on: L1210 leukemia ip in BDF1 mice, survival T/C
Assay: NCI In Vivo Anticancer Drug Screen. Data for tumor model L1210 Leukemia (intraperitoneal) in B6D2F1 (BDF1) mice
Assay setup: endpoint: mean survival time; dose: 100.0 mg/kg/injection; schedule: Q04DX003 (ip); vehicle: saline sonified; higher = longer survival
Inconclusive results and toxic doses are left out.
Quantity name: T/C

// worked examples, T/C included
>>> print(df.to_string())
                                   compound            result
0  COC(=O)C(O)c1ccc2c(c1)OCO2 (stereo unspecified)   97 % of control
1       CCCC#CCOCC1CO1 (stereo unspecified)   98 % of control
2  CCCCCCCCC/C(=N\Nc1ccc([N+](=O)[O-])cc1[N+](=O)[O-])c1ccccc1  108 % of control
3      COc1c2ccoc2c(OCC=C(C)C)c2oc(=O)ccc12  107 % of control
4             Cc1csc2nc(-c3ccccc3)nc(Cl)c12   97 % of control

Moving on to the next compound.
Incoming: Please report the measured T/C for CN(N=O)P(=O)(Nc1ccccc1)Nc1ccccc1
Outgoing: 122 % of control

----------
List of T/C values.
Test system: L1210 leukemia ip in BDF1 mice, survival T/C
Assay: NCI In Vivo Anticancer Drug Screen. Data for tumor model L1210 Leukemia (intraperitoneal) in B6D2F1 (BDF1) mice
Assay setup: endpoint: mean survival time; dose: 400.0 mg/kg/injection; schedule: Q01DX001 (ip); vehicle: saline; higher = longer survival
Toxic doses and inconclusive results are not listed.

>>> print(df.to_string())
                                   molecule            result
0  COC(=O)C1=C2C(C(=O)OC)C(O)=C(C(=O)OC)C2C(C(=O)OC)C1=O (configuration not stated)  103 % of control
1              CC(C)(C)NP(c1ccccc1)c1ccccc1   98 % of control
2  O=[N+]([O-])c1cc2cnn(CCl)c2cc1[N+](=O)[O-]  109 % of control
3  O=S(=O)(Cc1ccccc1)/C(=C\c1ccccc1)c1ccccc1  103 % of control
4  COc1ccc(CN2CCCN(Cc3ccc(OC)cc3OC)C2c2ccccn2)c(OC)c1   89 % of control

Incoming: Please report the measured T/C for CSc1cc(=O)n(C2OC(CO)C(O)C2O)c(=O)[nH]1 (configuration not stated)
Outgoing: 104 % of control

Incoming: Please report the measured T/C for CSc1cc(N)nc2nc[nH]c12
Outgoing: 98 % of control
